// provenance: patent US20180105596A1

Target: T1, recombinant His-Strep tagged human Tyro3 extracellular domain (human, UniProt Q06418 41-429)
T1 construct: also called hTyro3 ECD; full Tyro3 ECD
T1 sequence: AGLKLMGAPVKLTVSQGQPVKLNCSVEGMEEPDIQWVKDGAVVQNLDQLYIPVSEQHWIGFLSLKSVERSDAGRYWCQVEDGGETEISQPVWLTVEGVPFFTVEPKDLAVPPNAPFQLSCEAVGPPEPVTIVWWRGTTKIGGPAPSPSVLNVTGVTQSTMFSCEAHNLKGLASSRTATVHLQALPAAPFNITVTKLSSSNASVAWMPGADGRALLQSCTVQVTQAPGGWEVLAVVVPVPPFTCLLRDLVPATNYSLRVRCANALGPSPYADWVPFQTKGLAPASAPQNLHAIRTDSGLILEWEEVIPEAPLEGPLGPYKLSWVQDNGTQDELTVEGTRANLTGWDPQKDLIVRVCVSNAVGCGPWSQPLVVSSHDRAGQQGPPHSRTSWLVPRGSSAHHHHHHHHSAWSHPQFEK
Experiment: sandwich ELISA, Strep-tagged hTyro3 ECD captured on StrepMAB plate, IgG 3-fold from 3 µg/mL, anti-human IgG1-HRP
valueType: EC50 (read off the curve)

binder="IgG2713 (antibody, V domains shown, also called IGX2713) VH: EVQLVQSGADVKKPGASLTISCQASGYTFTDYWISWVRQKPGKGLEWMGRISRHGSQTYYGPSFQGHVTISADRSTATAYLQWRSLEASDTAMYYCVRAGGQTSGGTIPEYYQHWGPGTLVTVSS VL: SYELTQPPSVSVSPGQTARITCSGDALPKKYAYWYQQKSGQAPVLVIYEDHKRASGIPERFSGSSSGTMATLTISGAQVEDEADYYCYSISPAGNYGVFGGGTKLTVL" result="~0.03 µg/mL"

Give the value of EC50 (read off the curve) reported for the following: IgG2415 (antibody, V domains shown, also called IGX2415) VH: EVQLVQSGADVKKPGASLTISCQASGYTFTDYWISWVRQKPGKGLEWMGQIRGPASATHYGPSFQGHVTISADRSTATAYLQWRSLEASDTAMYYCVRHQQQTSGGTIPEYYQHWGPGTLVTVSS VL: SYELTQPPSVSVSPGQTARITCSGDALPKKYAYWYQQKSGQAPVLVIYEDKKRISGIPERFSGSSSGTMATLTISGAQVEDEADYYCYSTSTGGNYMVFGGGTKLTVL
~0.02 µg/mL

Determine its reported EC50 (read off the curve): IgG2710 (antibody, V domains shown, also called IGX2710) VH: EVQLVQSGADVKKPGASLTISCQASGYTFTDYWISWVRQKPGKGLEWMGVINKYASWTRYGPSFQGHVTISADRSTATAYLQWRSLEASDTAMYYCVRSGGLTSGGTIPEYYQHWGPGTLVTVSS VL: SYELTQPPSVSVSPGQTARITCSGDALPKKYAYWYQQKSGQAPVLVIYEDSKRPSGIPERFSGSSSGTMATLTISGAQVEDEADYYCYSQNPQGNYFVFGGGTKLTVL
~0.03 µg/mL

Look up and state reported EC50 (read off the curve) for IgG2413 (antibody, V domains shown, also called IGX2413) VH: EVQLVQSGADVKKPGASLTISCQASGYTFTDYWISWVRQKPGKGLEWMGRIHTYQSSTRYGPSFQGHVTISADRSTATAYLQWRSLEASDTAMYYCVRHHSTTTANPYSSWGPGTLVTVSS VL: SYELTQPPSVSVSPGQTARITCSGDALPKKYAYWYQQKSGQAPVLVIYEDDKRLSGIPERFSGSSSGTMATLTISGAQVEDEADYYCYSTEINGNYAVFGGGTKLTVL
~0.02 µg/mL

Find the measured EC50 (read off the curve) of IgG2411 (antibody, V domains shown, also called IGX2411) VH: EVQLVQSGADVKKPGASLTISCQASGYTFTDYWISWVRQKPGKGLEWMGSITRSSSRTHYGPSFQGHVTISADRSTATAYLQWRSLEASDTAMYYCVRGYTHLRTWGPGTLVTVSS VL: SYELTQPPSVSVSPGQTARITCSGDALPKKYAYWYQQKSGQAPVLVIYEDSKRSSGIPERFSGSSSGTMATLTISGAQVEDEADYYCYSANQRGNYMVFGGGTKLTVL and report it.
~0.02 µg/mL

Provide only the value of recorded EC50 (read off the curve) for IgG2711 (antibody, V domains shown, also called IGX2711) VH: EVQLVQSGADVKKPGASLTISCQASGYTFTDYWISWVRQKPGKGLEWMGQIRGQHSSTLYGPSFQGHVTISADRSTATAYLQWRSLEASDTAMYYCVRHGASTSGGTIPEYYQHWGPGTLVTVSS VL: SYELTQPPSVSVSPGQTARITCSGDALPKKYAYWYQQKSGQAPVLVIYEDAKRSSGIPERFSGSSSGTMATLTISGAQVEDEADYYCYSLSDSGNYFVFGGGTKLTVL
~0.01 µg/mL
